- target.or.test.system: T1, human C1s (human, UniProt P09871 16-688)
- T1 construct: Analyte in the Biacore assays; also called hC1s; serum-derived human C1s (CompTech)
- T1 sequence: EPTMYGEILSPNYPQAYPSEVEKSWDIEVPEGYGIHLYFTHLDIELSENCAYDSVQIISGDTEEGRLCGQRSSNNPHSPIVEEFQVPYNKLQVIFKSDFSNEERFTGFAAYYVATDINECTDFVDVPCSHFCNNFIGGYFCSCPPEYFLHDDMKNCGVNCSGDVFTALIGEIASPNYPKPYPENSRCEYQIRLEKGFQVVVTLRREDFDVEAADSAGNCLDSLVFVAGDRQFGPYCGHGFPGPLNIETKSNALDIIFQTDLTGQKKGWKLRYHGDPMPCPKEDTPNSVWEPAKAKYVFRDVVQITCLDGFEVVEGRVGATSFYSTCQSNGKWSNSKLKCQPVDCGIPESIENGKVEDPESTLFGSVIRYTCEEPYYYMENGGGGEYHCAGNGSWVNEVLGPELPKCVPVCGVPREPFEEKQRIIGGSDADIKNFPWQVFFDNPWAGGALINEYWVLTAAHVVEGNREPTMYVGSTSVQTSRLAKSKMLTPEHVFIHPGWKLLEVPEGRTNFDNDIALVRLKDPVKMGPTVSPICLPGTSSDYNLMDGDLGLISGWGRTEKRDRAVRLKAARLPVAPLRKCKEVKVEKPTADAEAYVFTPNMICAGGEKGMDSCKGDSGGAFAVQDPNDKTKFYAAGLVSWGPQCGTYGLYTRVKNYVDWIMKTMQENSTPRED
- procedure.details: SPR (Biacore T200, 37C), Ab captured on protein A/G; pH 5.8, 3 uM Ca
Collected kon values appear next to each entry.
Kindly provide the numeric value in M⁻¹ s⁻¹ only, without the unit symbol.

Solved cases below.
C1_IPN92H0282-SG4GK/IPN93L0091-SK1 (antibody, human IgG4 S228P, kappa, name in Kabat numbering, V domains shown, Substitutions from IPN009VH2 / IPN009VK3, Kabat numbering; also called IPN92H0282/IPN93L0091) VH: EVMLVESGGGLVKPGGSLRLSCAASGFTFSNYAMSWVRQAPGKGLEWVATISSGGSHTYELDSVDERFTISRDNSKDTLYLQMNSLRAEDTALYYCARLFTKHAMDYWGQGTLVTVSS VL: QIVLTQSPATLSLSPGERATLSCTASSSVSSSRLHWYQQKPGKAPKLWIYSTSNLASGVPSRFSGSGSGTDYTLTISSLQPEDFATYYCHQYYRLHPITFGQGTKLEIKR = 670000
C1_IPN92H0145-SG4GK/IPN93L0024-SK1 (antibody, human IgG4 S228P, kappa, name in Kabat numbering, V domains shown, Substitutions from IPN009VH2, Kabat numbering; also called IPN92H0145/IPN93L0024) VH: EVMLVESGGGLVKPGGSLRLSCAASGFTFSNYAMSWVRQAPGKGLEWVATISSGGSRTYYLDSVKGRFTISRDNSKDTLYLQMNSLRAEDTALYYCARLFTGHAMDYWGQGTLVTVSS VL: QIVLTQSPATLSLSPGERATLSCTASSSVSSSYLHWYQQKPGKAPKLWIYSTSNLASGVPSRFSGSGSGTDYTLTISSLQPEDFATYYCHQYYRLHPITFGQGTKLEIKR = 469000
C1_IPN92H0253-SG4GK/IPN93L0024-SK1 (antibody, human IgG4 S228P, kappa, name in Kabat numbering, V domains shown, Substitutions from IPN009VH2, Kabat numbering; also called IPN92H0253/IPN93L0024) VH: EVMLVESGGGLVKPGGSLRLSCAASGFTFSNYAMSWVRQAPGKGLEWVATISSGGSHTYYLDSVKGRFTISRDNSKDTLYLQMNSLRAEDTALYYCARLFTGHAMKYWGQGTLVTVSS VL: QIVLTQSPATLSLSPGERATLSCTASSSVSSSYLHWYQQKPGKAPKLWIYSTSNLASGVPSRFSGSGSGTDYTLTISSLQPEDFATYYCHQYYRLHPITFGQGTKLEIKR = 578000

-- ask Which measured kon value corresponds to C1_IPN92H0281-SG4GK/IPN93L0091-SK1 (antibody, human IgG4 S228P, kappa, name in Kabat numbering, V domains shown, Substitutions from IPN009VH2 / IPN009VK3, Kabat numbering; also called IPN92H0281/IPN93L0091) VH: EVMLVESGGGLVKPGGSLRLSCAASGFTFSNYAMSWVRQAPGKGLEWVATISSGGSKTYELDSVDERFTISRDNSKDTLYLQMNSLRAEDTALYYCARLFTKHAMDYWGQGTLVTVSS VL: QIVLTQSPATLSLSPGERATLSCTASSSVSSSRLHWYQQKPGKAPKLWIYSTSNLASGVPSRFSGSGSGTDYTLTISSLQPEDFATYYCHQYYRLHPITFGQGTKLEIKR ?
-- reply 585000

-- ask Another binder: C1_IPN92H0232-SG4GK/IPN93L0024-SK1 (antibody, human IgG4 S228P, kappa, name in Kabat numbering, V domains shown, Substitutions from IPN009VH2, Kabat numbering; also called IPN92H0232/IPN93L0024) VH: EVMLVESGGGLVKPGGSLRLSCAASGFTFSNYAMSWVRQAPGKGLEWVATISSGGSHTYYLDSVKGRFTISRDNSKDTLYLQMNSLRAEDTALYYCARLFTRHAMDYWGQGTLVTVSS VL: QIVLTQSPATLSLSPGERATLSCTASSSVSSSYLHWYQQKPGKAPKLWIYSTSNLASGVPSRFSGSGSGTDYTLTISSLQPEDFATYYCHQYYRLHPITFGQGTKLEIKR
-- reply 3.23e+06
